System: MDA-MB-231
assay_details: Antiproliferative activity against human MDA-MB-231 cells incubated for 48 hrs by SRB assay
Type: functional
test_settings: MDA-MB-231, 48 h
measure_name: GI50

>  <molecular_string>
O=C(Nc1cnccn1)c1ccc(CNC2=C(Cl)C(=O)c3ccccc3C2=O)cc1

>  <measure_name>
GI50

>  <assay_value>
9.2 µM

$$$$
>  <molecular_string>
O=C(Nc1ccc2[nH]cnc2c1)c1ccc(CNC2=C(Cl)C(=O)c3ccccc3C2=O)cc1

>  <measure_name>
GI50

>  <assay_value>
> 10 µM

$$$$
>  <molecular_string>
O=C(Nc1ccc(F)cc1)c1ccc(CNC2=C(Cl)C(=O)c3ccccc3C2=O)cc1

>  <measure_name>
GI50

>  <assay_value>
> 10 µM

$$$$
>  <molecular_string>
O=C(Nc1nccs1)c1ccc(CNC2=C(Cl)C(=O)c3ccccc3C2=O)cc1

>  <measure_name>
GI50

>  <assay_value>
> 10 µM

$$$$
>  <molecular_string>
O=C(Nc1cccnc1)c1ccc(CNC2=C(Cl)C(=O)c3ccccc3C2=O)cc1

>  <measure_name>
GI50

>  <assay_value>
> 10 µM

$$$$
>  <molecular_string>
O=C(Nc1ccncc1)c1ccc(CNC2=C(Cl)C(=O)c3ccccc3C2=O)cc1

>  <measure_name>
GI50

>  <assay_value>
2.9 µM

$$$$
>  <molecular_string>
O=C(Nc1ccc2[nH]ncc2c1)c1ccc(CNC2=C(Cl)C(=O)c3ccccc3C2=O)cc1

>  <measure_name>
GI50

>  <assay_value>
> 10 µM

$$$$
>  <molecular_string>
O=C(Nc1ccc2cn[nH]c2c1)c1ccc(CNC2=C(Cl)C(=O)c3ccccc3C2=O)cc1

>  <measure_name>
GI50

>  <assay_value>
> 10 µM

$$$$
>  <molecular_string>
O=C(Nc1ccccc1)c1ccc(CNC2=C(Cl)C(=O)c3ccccc3C2=O)cc1

>  <measure_name>
GI50

>  <assay_value>
> 10 µM

$$$$

----------
System: HCT-116
assay_details: Antiproliferative activity against human HCT116 cells incubated for 48 hrs by SRB assay
Assay type: functional
test_settings: HCT-116, 48 h

>  <molecular_string>
O=C(Nc1ccncc1)c1ccc(CNC2=C(Cl)C(=O)c3ccccc3C2=O)cc1

>  <GI50>
4.3 µM

$$$$
>  <molecular_string>
O=C(Nc1ccccn1)c1ccc(CNC2=C(Cl)C(=O)c3ccccc3C2=O)cc1

>  <GI50>
> 10 µM

$$$$
>  <molecular_string>
O=C(Nc1cnccn1)c1ccc(CNC2=C(Cl)C(=O)c3ccccc3C2=O)cc1

>  <GI50>
5.5 µM

$$$$
>  <molecular_string>
O=C(Nc1cnc2ccccc2c1)c1ccc(CNC2=C(Cl)C(=O)c3ccccc3C2=O)cc1

>  <GI50>
> 10 µM

$$$$
>  <molecular_string>
O=C(Nc1ccc(F)cc1)c1ccc(CNC2=C(Cl)C(=O)c3ccccc3C2=O)cc1

>  <GI50>
> 10 µM

$$$$
>  <molecular_string>
O=C(Nc1ccc2[nH]ncc2c1)c1ccc(CNC2=C(Cl)C(=O)c3ccccc3C2=O)cc1

>  <GI50>
> 10 µM

$$$$
>  <molecular_string>
O=C(Nc1nc2ccccc2[nH]1)c1ccc(CNC2=C(Cl)C(=O)c3ccccc3C2=O)cc1

>  <GI50>
> 10 µM

$$$$
>  <molecular_string>
O=C(Nc1cccc2[nH]ccc12)c1ccc(CNC2=C(Cl)C(=O)c3ccccc3C2=O)cc1

>  <GI50>
> 10 µM

$$$$
